Biological target: adrenergic α1 receptor
Assay: adrenergic α1 receptor binding test ([3H] Prazosin Binding Test)
Set-up: species or system SD rats
Conditions: 1 nM [3H] Prazosin, rat cortex, room temperature, 60 minutes
Exercise: state measured pKi for each of the compounds provided.
Remember, pKi is on a log scale: it is -log10 of the molar concentration.

Value lookup for pKi; key = CCC(F)c1cc(N2CCN(CC)CC2)cc(-c2ccccc2)c1OC (stereo not drawn)
6.31

Another compound to look at: CCC(F)c1cc(N2CCN(CC)CC2)cc(-c2ccccc2CF)c1Cl (stereo not drawn)
5.62

Also CCCNS(=O)(=O)c1cc(N2CCN(CC)CC2)cc(-c2ccccc2C)c1Cl , if possible.
6.11

Next entry: CCC(F)c1cc(N2CCN(CC)CC2)cc(-c2ccc(F)cc2Cl)c1Cl (stereo not drawn)
6.29

Also CC[C@H](F)c1cc(N2CCN(CC)CC2)cc(-c2ccc(F)cc2C)c1Cl ?
5.99

Try this compound next: CCCS(=O)(=O)Nc1cc(N2CCN(CC)CC2)cc(-c2ccccc2Cl)c1Cl
7.71

Now give it for CC[C@H](F)c1cc(N2CCN(C)CC2)cc(-c2ccccc2C)c1Cl too.
6.31

Input CCCS(=O)(=O)Nc1cc(N2CCN(CC)CC2)cc(-c2ccccc2C)c1Cl
7.16

Cool, now CCN1CCN(c2cc(-c3ccccc3)c(F)c(S(=O)(=O)CC)c2)CC1
7.57

Ok, now CCN1CCN(c2cc(CCO)cc(-c3ccccc3)c2OC)CC1
6.16
